target: IL-1β (UniProt P01584 117-269); experiment: Biacore, Fab periplasmic extract on IL-1β
binders and their reported fold difference in affinity vs original
Could you give me the number in fold? Just the number is fine.

Binder	Property Measured	Measured Value
XPA23 light chain S53T (Fab, V domains shown, Single light chain substitution; Fab in periplasmic extract; also called C5A (XPA23) S53T) VH: EVQLLESGGGLVQPGGSLRLSCAASGFTFSKYFMFWVRQAPGKGLEWVSVISPSGGMTRYADSVKGRFTISRDNSKNTLYLQMNSLRAEDTAVYYCARVGYGGNSDYWGQGTLVTVSS VL: DIQMTQSPSSVSASVGDRLTIICRASQDINRWLAWYQQTPGNAPKLLIHSATTLQSGVPSRFSGSGSGTDFTLTINSLQPEDFATYYCQQADSFPLTFGGGTKVEIK	fold difference in affinity vs original	0.95
XPA23 light chain L96A (Fab, V domains shown, Single light chain substitution; Fab in periplasmic extract; also called C5A (XPA23) L96A) VH: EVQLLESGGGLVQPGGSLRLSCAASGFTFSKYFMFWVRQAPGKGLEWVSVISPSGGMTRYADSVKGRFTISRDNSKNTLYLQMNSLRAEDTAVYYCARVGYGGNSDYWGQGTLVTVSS VL: DIQMTQSPSSVSASVGDRLTIICRASQDINRWLAWYQQTPGNAPKLLIHSATSLQSGVPSRFSGSGSGTDFTLTINSLQPEDFATYYCQQADSFPATFGGGTKVEIK	fold difference in affinity vs original	0.26
XPA23 light chain S53G (Fab, V domains shown, Single light chain substitution; Fab in periplasmic extract; also called C5A (XPA23) S53G) VH: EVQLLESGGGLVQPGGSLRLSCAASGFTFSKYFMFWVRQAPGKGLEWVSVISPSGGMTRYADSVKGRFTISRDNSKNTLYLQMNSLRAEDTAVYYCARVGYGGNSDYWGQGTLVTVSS VL: DIQMTQSPSSVSASVGDRLTIICRASQDINRWLAWYQQTPGNAPKLLIHSATGLQSGVPSRFSGSGSGTDFTLTINSLQPEDFATYYCQQADSFPLTFGGGTKVEIK	fold difference in affinity vs original	1.03

Notebook: XPA23 light chain S93T (Fab, V domains shown, Single light chain substitution; Fab in periplasmic extract; also called C5A (XPA23) S93T) VH: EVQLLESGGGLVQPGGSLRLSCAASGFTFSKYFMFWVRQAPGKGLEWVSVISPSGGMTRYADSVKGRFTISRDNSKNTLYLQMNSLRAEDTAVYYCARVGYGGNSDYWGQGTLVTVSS VL: DIQMTQSPSSVSASVGDRLTIICRASQDINRWLAWYQQTPGNAPKLLIHSATSLQSGVPSRFSGSGSGTDFTLTINSLQPEDFATYYCQQADTFPLTFGGGTKVEIK , fold difference in affinity vs original read as 1.47
